Data credit: patent US8796023B2

- Experiment summary: Self-assembly of end-capping modified diphenylalanine peptides, viewed by SEM/TEM
- Assay type: physicochemical
- Condition set: HFIP stock diluted in ddH2O; SEM/TEM/AFM
Residues, ends and D or L forms follow the SMILES beside them. *: point of attachment. Fmoc = O=C(OCC1c2ccccc2-c2ccccc21)*; Cbz = O=C(OCc1ccccc1)*
Endpoint name: structures formed by self-assembly (morphology)

# Compound, Value reported
measured = [
    ("O=C(NC(Cc1ccccc1)C(=O)NC(Cc1ccccc1)C(=O)O)OCC1c2ccccc2-c2ccccc21 (stereo not drawn) [Peptide 6, Fmoc-Phe-Phe-COOH] (Fmoc-Phe-Phe-OH; configuration not given here)", "fibrillar structures"),
    ("O=C(NC(Cc1ccccc1)C(=O)NC(Cc1ccccc1)C(=O)O)OCc1ccccc1 (stereo not drawn) [Peptide 7, Cbz-Phe-Phe-COOH] (Cbz-Phe-Phe-OH; configuration not given here)", "fibrillar structures"),
]
